Tested on: 377384-186-R-J1-PDC complex spheroid viability
Assay: Anticancer human tumor 377384-186-R-J1-PDC patient-derived pancreatic carcinoma cell line growth inhibition [RAS]; active = viability on the fitted dose curve at most 10% of control; inactive = the rest
Conditions: second compound 0.0316 µM; first compound 3.16 µM
Entry note: the call must match one of active, inactive

Please review the following examples before continuing.
>>> discrete_label("CC(C)NCC(C(=O)N1CCN(c2ncnc3c2C(C)CC3O)CC1)c1ccc(Cl)cc1 (stereo unspecified) + C#Cc1c(F)ccc2cc(O)cc(-c3ncc4c(N5CC6CCC(C5)N6)nc(OCC56CCCN5CC(F)C6)nc4c3F)c12")
"inactive"
>>> discrete_label("CC(Nc1ccc2c(c1)OCCn1cc(N3C(=O)OCC3C(F)F)nc1-2)C(N)=O (stereo unspecified) + C#Cc1c(F)ccc2cc(O)cc(-c3ncc4c(N5CC6CCC(C5)N6)nc(OCC56CCCN5CC(F)C6)nc4c3F)c12")
"active"
>>> discrete_label("CC(C)NCC(C(=O)N1CCN(c2ncnc3c2C(C)CC3O)CC1)c1ccc(Cl)cc1 (stereo unspecified) + C=CC(=O)N1CCN(c2nc(OCC3CCCN3C)nc3c(F)c(-c4nc(N)cc(C)c4C(F)(F)F)c(Cl)cc23)C(C)C1")
"inactive"
>>> discrete_label("C[C@@H](NC(=O)c1ncnc(N)c1Cl)c1ncc(C(=O)Nc2cc(C(F)(F)F)c(Cl)cn2)s1 + C#Cc1c(F)ccc2cc(O)cc(-c3ncc4c(N5CC6CCC(C5)N6)nc(OCC56CCCN5CC(F)C6)nc4c3F)c12")
"inactive"

Okay, now this compound:
[ask] Could you check what this test reported for CC(=O)OC12COC1CC(O)C1(C)C(=O)C(O)C3=C(C)C(OC(=O)C(O)C(NC(=O)OC(C)(C)C)c4ccccc4)CC(O)(C(OC(=O)c4ccccc4)C21)C3(C)C (stereo unspecified) + C=CC(=O)N1CCN(c2nc(OCC3CCCN3C)nc3c(F)c(-c4nc(N)cc(C)c4C(F)(F)F)c(Cl)cc23)C(C)C1 ?
[reply] inactive

###

Recorded viability, T/C, one value per entry.
System: 377384-186-R-J1-PDC complex spheroid viability
Assay: Anticancer human tumor 377384-186-R-J1-PDC cell line growth inhibition [RAS];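 also: spheroids exposed to compounds for seven days before readout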
Details: second compound 0.000949 µM; first compound 0.003 µM; stronger effect = lower value
Answer format: numeric, % implied, no suffix.

>>> observed_measurement("CCc1c2c(nc3ccc(O)cc13)-c1cc3c(c(=O)n1C2)COC(=O)[C@]3(O)CC + CCn1c(-c2cccnc2C(C)OC)c2c3cc(ccc31)N1CCOC(CC(NC(=O)C(C(C)C)N(C)C(=O)C3(F)CCN(C(=O)C#CC(C)(C)N(C)C)CC3)C(=O)N3CCCC(N3)C(=O)OCC(C)(C)C2)C1")
46.6
>>> observed_measurement("CCc1c2c(nc3ccc(O)cc13)-c1cc3c(c(=O)n1C2)COC(=O)[C@]3(O)CC + CCn1c(-c2cc(N3CCN(C)CC3)cnc2C(C)OC)c2c3cc(ccc31)-c1csc(n1)CC(NC(=O)C1CC1C)C(=O)N1CCCC(N1)C(=O)OCC(C)(C)C2")
21.3
>>> observed_measurement("CC1(C)CCC(Nc2ncc(C(F)(F)F)c(-c3c[nH]c4c(P(C)(C)=O)c(C#N)ccc34)n2)CN1 (centres undefined) + CCn1c(-c2cc(N3CCN(C)CC3)cnc2C(C)OC)c2c3cc(ccc31)-c1csc(n1)CC(NC(=O)C1CC1C)C(=O)N1CCCC(N1)C(=O)OCC(C)(C)C2")
37.1

# next compound below
Reported viability, T/C of CC1(C)CCC(Nc2ncc(C(F)(F)F)c(-c3c[nH]c4c(P(C)(C)=O)c(C#N)ccc34)n2)CN1 (centres undefined) + CCn1c(-c2cccnc2C(C)OC)c2c3cc(ccc31)N1CCOC(CC(NC(=O)C(C(C)C)N(C)C(=O)C3(F)CCN(C(=O)C#CC(C)(C)N(C)C)CC3)C(=O)N3CCCC(N3)C(=O)OCC(C)(C)C2)C1 : 75.9

###

System: 377384-186-R-J1-PDC complex spheroid viability
Test: Anticancer human tumor 377384-186-R-J1-PDC cell line growth inhibition [RAS];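 also: spheroids exposed to compounds for seven days before readout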
Conditions: second compound 3.16 µM; first compound 10 µM; stronger effect = lower value
ATTRIBUTE MEASURED: viability, T/C (%)
Answer format: numeric, % implied, no suffix.

Reported viability, T/C of CC(=O)OC12COC1CC(O)C1(C)C(=O)C(O)C3=C(C)C(OC(=O)C(O)C(NC(=O)OC(C)(C)C)c4ccccc4)CC(O)(C(OC(=O)c4ccccc4)C21)C3(C)C (stereo not drawn) + C#Cc1c(F)ccc2cc(O)cc(-c3ncc4c(N5CC6CCC(C5)N6)nc(OCC56CCCN5CC(F)C6)nc4c3F)c12 : 1.95

Reported viability, T/C of NC1c2ccccc2OC12CCN(c1cnc3c(N4CCCc5ncccc54)n[nH]c3n1)CC2 (stereo not drawn) + C#Cc1c(F)ccc2cc(O)cc(-c3ncc4c(N5CC6CCC(C5)N6)nc(OCC56CCCN5CC(F)C6)nc4c3F)c12 : 0.34

Reported viability, T/C of CC(Nc1ccc2c(c1)OCCn1cc(N3C(=O)OCC3C(F)F)nc1-2)C(N)=O (stereo not drawn) + C#Cc1c(F)ccc2cc(O)cc(-c3ncc4c(N5CC6CCC(C5)N6)nc(OCC56CCCN5CC(F)C6)nc4c3F)c12 : 0.32

###

Test system: 377384-186-R-J1-PDC complex spheroid viability
Experiment: Anticancer human tumor 377384-186-R-J1-PDC cell line growth inhibition [RAS];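 also: spheroids exposed to compounds for seven days before readout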
Conditions: second compound 0.03 µM; first compound 0.1 µM; stronger effect = lower value
ATTRIBUTE MEASURED: viability, T/C

>>> observed_measurement("CC(=O)OC12COC1CC(O)C1(C)C(=O)C(O)C3=C(C)C(OC(=O)C(O)C(NC(=O)OC(C)(C)C)c4ccccc4)CC(O)(C(OC(=O)c4ccccc4)C21)C3(C)C (stereo not given) + CCn1c(-c2cccnc2C(C)OC)c2c3cc(ccc31)N1CCOC(CC(NC(=O)C(C(C)C)N(C)C(=O)C3(F)CCN(C(=O)C#CC(C)(C)N(C)C)CC3)C(=O)N3CCCC(N3)C(=O)OCC(C)(C)C2)C1")
"11.6%"
>>> observed_measurement("CCN1CCN(Cc2ccc(Nc3ncc(F)c(-c4cc(F)c5nc(C)n(C(C)C)c5c4)n3)nc2)CC1 + CCn1c(-c2cc(N3CCN(C)CC3)cnc2C(C)OC)c2c3cc(ccc31)-c1csc(n1)CC(NC(=O)C1CC1C)C(=O)N1CCCC(N1)C(=O)OCC(C)(C)C2")
"2.54%"

Reported viability, T/C of O=C(c1ccc(F)c(F)c1Nc1ccc(I)cc1F)N1CC(O)([C@@H]2CCCCN2)C1 + CCn1c(-c2cccnc2C(C)OC)c2c3cc(ccc31)N1CCOC(CC(NC(=O)C(C(C)C)N(C)C(=O)C3(F)CCN(C(=O)C#CC(C)(C)N(C)C)CC3)C(=O)N3CCCC(N3)C(=O)OCC(C)(C)C2)C1 : 18.9%

Reported viability, T/C of CC1(O)CCCC1n1c(=O)c(C(F)F)cc2cnc(NC3CCN(S(C)(=O)=O)CC3)nc21 (stereo not given) + CCn1c(-c2cc(N3CCN(C)CC3)cnc2C(C)OC)c2c3cc(ccc31)-c1csc(n1)CC(NC(=O)C1CC1C)C(=O)N1CCCC(N1)C(=O)OCC(C)(C)C2 : 2.5%

Reported viability, T/C of CCN1CCN(Cc2ccc(Nc3ncc(F)c(-c4cc(F)c5nc(C)n(C(C)C)c5c4)n3)nc2)CC1 + CCn1c(-c2cccnc2C(C)OC)c2c3cc(ccc31)N1CCOC(CC(NC(=O)C(C(C)C)N(C)C(=O)C3(F)CCN(C(=O)C#CC(C)(C)N(C)C)CC3)C(=O)N3CCCC(N3)C(=O)OCC(C)(C)C2)C1 : 52%

###

System: 377384-186-R-J1-PDC complex spheroid viability
Experiment: Anticancer human tumor 377384-186-R-J1-PDC cell line growth inhibition [RAS];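 also: spheroids exposed to compounds for seven days before readout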
Details: second compound 0.003 µM; first compound 3.16 µM; stronger effect = lower value
Recorded viability, T/C, one value per entry.
Answer format: numeric, % implied, no suffix.

>>> observed_measurement("NC1c2ccccc2OC12CCN(c1cnc3c(N4CCCc5ncccc54)n[nH]c3n1)CC2 (configuration not stated) + CCn1c(-c2cc(N3CCN(C)CC3)cnc2C(C)OC)c2c3cc(ccc31)-c1csc(n1)CC(NC(=O)C1CC1C)C(=O)N1CCCC(N1)C(=O)OCC(C)(C)C2")
0.28
>>> observed_measurement("CC(Nc1ccc2c(c1)OCCn1cc(N3C(=O)OCC3C(F)F)nc1-2)C(N)=O (configuration not stated) + CCn1c(-c2cc(N3CCN(C)CC3)cnc2C(C)OC)c2c3cc(ccc31)-c1csc(n1)CC(NC(=O)C1CC1C)C(=O)N1CCCC(N1)C(=O)OCC(C)(C)C2")
4.06
>>> observed_measurement("CC1(O)CCCC1n1c(=O)c(C(F)F)cc2cnc(NC3CCN(S(C)(=O)=O)CC3)nc21 (configuration not stated) + CCn1c(-c2cc(N3CCN(C)CC3)cnc2C(C)OC)c2c3cc(ccc31)-c1csc(n1)CC(NC(=O)C1CC1C)C(=O)N1CCCC(N1)C(=O)OCC(C)(C)C2")
13.4
>>> observed_measurement("C[C@@H](NC(=O)c1ncnc(N)c1Cl)c1ncc(C(=O)Nc2cc(C(F)(F)F)c(Cl)cn2)s1 + CCn1c(-c2cccnc2C(C)OC)c2c3cc(ccc31)N1CCOC(CC(NC(=O)C(C(C)C)N(C)C(=O)C3(F)CCN(C(=O)C#CC(C)(C)N(C)C)CC3)C(=O)N3CCCC(N3)C(=O)OCC(C)(C)C2)C1")
127
>>> observed_measurement("CC(C)NCC(C(=O)N1CCN(c2ncnc3c2C(C)CC3O)CC1)c1ccc(Cl)cc1 (configuration not stated) + CCn1c(-c2cc(N3CCN(C)CC3)cnc2C(C)OC)c2c3cc(ccc31)-c1csc(n1)CC(NC(=O)C1CC1C)C(=O)N1CCCC(N1)C(=O)OCC(C)(C)C2")
12.7

The compound NC1c2ccccc2OC12CCN(c1cnc3c(N4CCCc5ncccc54)n[nH]c3n1)CC2 (configuration not stated) + CCn1c(-c2cccnc2C(C)OC)c2c3cc(ccc31)N1CCOC(CC(NC(=O)C(C(C)C)N(C)C(=O)C3(F)CCN(C(=O)C#CC(C)(C)N(C)C)CC3)C(=O)N3CCCC(N3)C(=O)OCC(C)(C)C2)C1 , tested on 377384-186-R-J1-PDC complex spheroid viability, showed viability, T/C of 93.3

The compound CC1(O)CCCC1n1c(=O)c(C(F)F)cc2cnc(NC3CCN(S(C)(=O)=O)CC3)nc21 (configuration not stated) + CCn1c(-c2cccnc2C(C)OC)c2c3cc(ccc31)N1CCOC(CC(NC(=O)C(C(C)C)N(C)C(=O)C3(F)CCN(C(=O)C#CC(C)(C)N(C)C)CC3)C(=O)N3CCCC(N3)C(=O)OCC(C)(C)C2)C1 , tested on 377384-186-R-J1-PDC complex spheroid viability, showed viability, T/C of 34.8
